# Tested on: newly emerged larvae of Lucilia sericata, blowfly
# PROCEDURE_DETAILS: Efficacy against blowfly larvae, treated paper/serum bioassay
# Format: in vivo
# ASSAY_CONDITIONS: Conc. 20.0 ppm; 24 h; blowfly larvae
VALUE_KIND: % Mortality 24 h (%)
Numbers only, in %.

Req: Test system newly emerged larvae of Lucilia sericata, blowfly; read-out % Mortality 24 h; what value for N#Cc1cn(-c2c(Cl)cc(C(F)(F)F)cc2Cl)nc1C1(c2ccc(Cl)cc2Cl)CC1 ?
Resp: 0

Req: And what about the molecule CC1(c2nn(-c3c(Cl)cc(C(F)(F)F)cc3Cl)c(N(C(=O)C3CC3)C(=O)C3CC3)c2C#N)CC1(Cl)Cl (centres unmarked) ?
Resp: 0

Req: And what about the molecule CC1(c2nn(-c3c(Cl)cc(C(F)(F)F)cc3Cl)c(Cl)c2C#N)CC1(Br)Br (centres unmarked) ?
Resp: 100

Req: And what about the molecule CC1(c2nn(-c3c(Cl)cc(C(F)(F)F)cc3Cl)c(I)c2C#N)CC1(Cl)Cl (centres unmarked) ?
Resp: 97

Req: And what about the molecule CC1(c2nn(-c3c(Cl)cc(C(F)(F)F)cc3Cl)c(N)c2C#N)CC1(Br)Br (centres unmarked) ?
Resp: 90

Req: And what about the molecule CC1(c2nn(-c3c(Cl)cc(Cl)cc3Cl)c(Br)c2C#N)CC1(Cl)Cl (centres unmarked) ?
Resp: 100

Req: And what about the molecule CC1(c2nn(-c3c(Cl)cc(Cl)cc3Cl)c(Cl)c2C#N)CC1(Cl)Cl (centres unmarked) ?
Resp: 100

Req: And what about the molecule CC1(c2nn(-c3c(Cl)cc(Cl)cc3Cl)cc2C#N)CC1(Cl)Cl (centres unmarked) ?
Resp: 70

Quick batch: % Mortality 24 h for everything below.
1. N#Cc1cn(-c2c(Cl)cc(Cl)cc2Cl)nc1C1(c2ccc(Cl)cc2Cl)CC1
2. CCOC=Nc1c(C#N)c(C2(C)CC2(Cl)Cl)nn1-c1c(Cl)cc(C(F)(F)F)cc1Cl (racemic)
3. CC1(c2nn(-c3c(Cl)cc(C(F)(F)F)cc3Cl)c(NC(=O)C3CC3)c2C#N)CC1(Cl)Cl (centres unmarked)
4. COc1ccc(C2(c3nn(-c4c(Cl)cc(Cl)cc4Cl)cc3C#N)CC2)cc1
5. COc1ccc(C2(c3nn(-c4c(Cl)cc(C(F)(F)F)cc4Cl)cc3C#N)CC2)cc1
6. N#Cc1c(C2CC2)nn(-c2c(Cl)cc(C(F)(F)F)cc2Cl)c1Cl

Resp:
0
100
10
0
0
97

Quick batch: % Mortality 24 h for everything below.
1. CC1(c2nn(-c3c(Cl)cc(C(F)(F)F)cc3Cl)c(Br)c2C#N)CC1(Br)Br (centres unmarked)
2. COC=Nc1c(C#N)c(C2(C)CC2(Cl)Cl)nn1-c1c(Cl)cc(C(F)(F)F)cc1Cl (centres unmarked)

Resp:
[100, 100]

Quick batch: % Mortality 24 h for everything below.
1. CN(C)c1c(C#N)c(C2(C)CC2(Cl)Cl)nn1-c1c(Cl)cc(C(F)(F)F)cc1Cl (centres unmarked)
2. CC1(c2nn(-c3c(Cl)cc(Cl)cc3Cl)c(N)c2C#N)CC1(Cl)Cl (centres unmarked)
3. CCCOC=Nc1c(C#N)c(C2(C)CC2(Cl)Cl)nn1-c1c(Cl)cc(C(F)(F)F)cc1Cl (racemic)
4. CC1(c2nn(-c3c(Cl)cc(Cl)cc3Cl)cc2C#N)CC1(Br)Br (centres unmarked)

Resp:
91
5
100
90

Quick batch: % Mortality 24 h for everything below.
1. CCN(CC)c1c(C#N)c(C2(C)CC2(Cl)Cl)nn1-c1c(Cl)cc(C(F)(F)F)cc1Cl (centres unmarked)
2. CN(C)C=Nc1c(C#N)c(C2(C)CC2(Cl)Cl)nn1-c1c(Cl)cc(C(F)(F)F)cc1Cl (centres unmarked)
3. CC1C(Cl)(Cl)C1(C)c1nn(-c2c(Cl)cc(C(F)(F)F)cc2Cl)cc1C#N (centres unmarked)
4. CC1(c2nn(-c3c(Cl)cc(Cl)cc3Cl)cc2C#N)CC1
5. N#Cc1cn(-c2c(Cl)cc(C(F)(F)F)cc2Cl)nc1C1(c2ccc(Cl)cc2)CC1

Resp:
1: 100; 2: 0; 3: 77; 4: 0; 5: 0

###

# Test system: Ctenocephatides felis, adult cat fleas
# PROCEDURE_DETAILS: Contact activity against adult cat fleas, coated glass vial assay
# Type: in vivo
# ASSAY_CONDITIONS: Conc. 2 ug/cm2, 24 h
Provide the recorded % Mortality 24 h for the entries that follow.
Answers are plain numbers, in %.

Req: # get_value(readout='% Mortality 24 h', item= CC1(c2nn(-c3c(Cl)cc(Cl)cc3Cl)c(Cl)c2C#N)CC1(Cl)Cl (centres unmarked) [Example 27] )
Resp: 100

Req: And what about the molecule CCN(CC)c1c(C#N)c(C2(C)CC2(Cl)Cl)nn1-c1c(Cl)cc(C(F)(F)F)cc1Cl (centres unmarked) [Example 33] ?
Resp: 100

Quick batch: % Mortality 24 h for everything below.
1. CCOC=Nc1c(C#N)c(C2(C)CC2(Cl)Cl)nn1-c1c(Cl)cc(C(F)(F)F)cc1Cl (racemic) [Example 40]
2. CC1(c2nn(-c3c(Cl)cc(C(F)(F)F)cc3Cl)c([N+](=O)[O-])c2C#N)CC1(Cl)Cl (centres unmarked) [Example 30]
3. CC1(c2nn(-c3c(Cl)cc(Cl)cc3Cl)c(Br)c2C#N)CC1(Cl)Cl (centres unmarked) [Example 28]
4. CC1(c2nn(-c3c(Cl)cc(C(F)(F)F)cc3Cl)cc2C#N)CC1(Cl)Cl (centres unmarked) [Example 5]
5. CC1(c2nn(-c3c(Cl)cc(C(F)(F)F)cc3Cl)c(I)c2C#N)CC1(Cl)Cl (centres unmarked) [Example 31]
6. CC1(c2nn(-c3c(Cl)cc(C(F)(F)F)cc3Cl)c(Br)c2C#N)CC1(Br)Br (centres unmarked) [Example 22]

Resp:
1: 100; 2: 100; 3: 10; 4: 33; 5: 100; 6: 100

###

Provide the recorded % Mortality 48 h for the entries that follow.
# Tested on: newly emerged larvae of Lucilia sericata, blowfly
# PROCEDURE_DETAILS: Efficacy against blowfly larvae, treated paper/serum bioassay
# Type: in vivo
# ASSAY_CONDITIONS: Conc. 0.2 ppm; 48 h; blowfly larvae
# Procedure: Evaluation of Efficacy of Test Compounds Against Blowfly Larvae The efficacy of a test compound against newly emerged larvae of Lucilia sericata, blowfly, is evaluated using a treated paper/serum bioassay. In this evaluation, a solution of test compound in acetone is applied to a filter paper disc and the disc is allowed to dry. Bovine serum and about 20 newly emerged blowfly larvae are added to the treated paper disc and the mortality is assessed at 24 h and 48 h. The data are averaged.
Give bare numbers, in %.

See these solved cases before continuing.
Req: # get_value(readout='% Mortality 48 h', item= CC1(c2nn(-c3c(Cl)cc(C(F)(F)F)cc3Cl)c(Cl)c2C#N)CC1(Br)Br (stereo not shown) )
Resp: 0

Req: And what about the compound CC1(c2nn(-c3c(Cl)cc(C(F)(F)F)cc3Cl)cc2C#N)CC1(Br)Br (stereo not shown) ?
Resp: 50

Req: And what about the compound CC1(c2nn(-c3c(Cl)cc(Cl)cc3Cl)c(Br)c2C#N)CC1(Cl)Cl (stereo not shown) ?
Resp: 0

Now consider the entry below.
Req: # get_value(readout='% Mortality 48 h', item= CC1(c2nn(-c3c(Cl)cc(C(F)(F)F)cc3Cl)c(I)c2C#N)CC1(Cl)Cl (stereo not shown) )
Resp: 0

###

# Tested on: Rhipacephalus sanguineus, adult ticks
# PROCEDURE_DETAILS: Contact activity against adult ticks, coated glass vial assay
# Assay type: in vivo
# ASSAY_CONDITIONS: Conc. 7.80 ug/cm2, 4 h
Would you please tag the item criterion met when its % Mortality 4 h is 40% or above, and criterion not met when it is below?

Req: Form field: % Mortality 4 h at least 40%? Entry: CC1(c2nn(-c3c(Cl)cc(C(F)(F)F)cc3Cl)c(Cl)c2C#N)CC1(Cl)Cl (stereo not shown) [Example 4]
Resp: criterion met

Req: And what about the compound CN(C)c1c(C#N)c(C2(C)CC2(Cl)Cl)nn1-c1c(Cl)cc(C(F)(F)F)cc1Cl (stereo not shown) [Example 32] ?
Resp: criterion not met

Req: And what about the compound CC1(c2nn(-c3c(Cl)cc(C(F)(F)F)cc3Cl)c(I)c2C#N)CC1(Cl)Cl (stereo not shown) [Example 31] ?
Resp: criterion met

Req: And what about the compound CC1(c2nn(-c3c(Cl)cc(C(F)(F)F)cc3Cl)cc2C#N)CC1(Br)Br (stereo not shown) [Example 14] ?
Resp: criterion met

Req: And what about the compound CC1(c2nn(-c3c(Cl)cc(C(F)(F)F)cc3Cl)c(Cl)c2C#N)CC1(Br)Br (stereo not shown) [Example 20] ?
Resp: criterion not met

Attention now turns to another entry.
Req: Form field: % Mortality 4 h at least 40%? Entry: CC1C(Cl)(Cl)C1(C)c1nn(-c2c(Cl)cc(C(F)(F)F)cc2Cl)cc1C#N (stereo not shown) [Example 7]
Resp: criterion not met
